- MEASURED TARGET: HTR2C (Homo sapiens, UniProt P28335)
- Sequence (P28335 1-458): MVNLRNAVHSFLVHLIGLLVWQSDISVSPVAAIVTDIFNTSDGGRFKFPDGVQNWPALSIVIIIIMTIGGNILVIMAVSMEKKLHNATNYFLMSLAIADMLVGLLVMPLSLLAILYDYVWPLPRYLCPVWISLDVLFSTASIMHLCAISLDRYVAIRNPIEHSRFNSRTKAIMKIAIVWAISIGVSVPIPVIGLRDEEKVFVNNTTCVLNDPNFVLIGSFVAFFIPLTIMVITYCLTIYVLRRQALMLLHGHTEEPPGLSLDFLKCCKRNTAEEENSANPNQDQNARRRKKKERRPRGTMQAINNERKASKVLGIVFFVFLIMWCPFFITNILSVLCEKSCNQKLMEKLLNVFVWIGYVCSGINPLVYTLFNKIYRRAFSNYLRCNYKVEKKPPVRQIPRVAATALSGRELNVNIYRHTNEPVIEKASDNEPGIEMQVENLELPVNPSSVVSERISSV
- PROTOCOL SUMMARY: cell-based
- Set-up: species or system HEK293; Fluo-4 Direct calcium mobilization on FLIPR-Tetra
- EXPERIMENTAL SETUP: Assay=Calcium; agonist mode
ATTRIBUTE MEASURED: EC50 (nM)

SMILES | ATTRIBUTE MEASURED | VAL
CCCCCCOc1nsnc1C1=CCCNC1 | EC50 | 1090

====

The following are reported Ki results, target or system M3 (Homo sapiens).

COMPOUND | UNIT LABEL | Ki
CCCCCCOc1nsnc1C1=CCCN(C)C1 [Xanomeline] | nM | 74.1
CCCCCCOc1nsnc1C1=CCCNC1 [N-desmethylxanomeline] | nM | 112

====

- MEASURED TARGET: HRH4 (Homo sapiens)
- Sequence (Q9H3N8 whole entry): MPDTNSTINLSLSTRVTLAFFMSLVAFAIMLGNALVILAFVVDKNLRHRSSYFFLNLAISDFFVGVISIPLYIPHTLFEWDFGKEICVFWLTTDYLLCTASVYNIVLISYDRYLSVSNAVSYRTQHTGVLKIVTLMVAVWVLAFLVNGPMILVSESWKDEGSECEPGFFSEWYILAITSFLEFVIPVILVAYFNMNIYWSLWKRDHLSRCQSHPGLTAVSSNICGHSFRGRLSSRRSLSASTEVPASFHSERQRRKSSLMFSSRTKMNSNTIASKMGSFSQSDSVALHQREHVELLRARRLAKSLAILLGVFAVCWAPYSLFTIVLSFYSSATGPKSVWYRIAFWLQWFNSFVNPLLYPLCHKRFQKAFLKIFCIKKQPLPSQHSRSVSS
- PROTOCOL SUMMARY: cell-based
- Set-up: species or system HEK293; TRUPATH BRET2 G-protein dissociation; antagonist mode against agonist EC80
- EXPERIMENTAL SETUP: N-Desmethyl Xanomeline, Assay=Gi2; agonist mode

SMILES | EC50
CCCCCCOc1nsnc1C1=CCCNC1 | 1390 nM

====

- MEASURED TARGET: CHRM3 (Homo sapiens, UniProt P20309)
- Sequence (P20309 whole entry): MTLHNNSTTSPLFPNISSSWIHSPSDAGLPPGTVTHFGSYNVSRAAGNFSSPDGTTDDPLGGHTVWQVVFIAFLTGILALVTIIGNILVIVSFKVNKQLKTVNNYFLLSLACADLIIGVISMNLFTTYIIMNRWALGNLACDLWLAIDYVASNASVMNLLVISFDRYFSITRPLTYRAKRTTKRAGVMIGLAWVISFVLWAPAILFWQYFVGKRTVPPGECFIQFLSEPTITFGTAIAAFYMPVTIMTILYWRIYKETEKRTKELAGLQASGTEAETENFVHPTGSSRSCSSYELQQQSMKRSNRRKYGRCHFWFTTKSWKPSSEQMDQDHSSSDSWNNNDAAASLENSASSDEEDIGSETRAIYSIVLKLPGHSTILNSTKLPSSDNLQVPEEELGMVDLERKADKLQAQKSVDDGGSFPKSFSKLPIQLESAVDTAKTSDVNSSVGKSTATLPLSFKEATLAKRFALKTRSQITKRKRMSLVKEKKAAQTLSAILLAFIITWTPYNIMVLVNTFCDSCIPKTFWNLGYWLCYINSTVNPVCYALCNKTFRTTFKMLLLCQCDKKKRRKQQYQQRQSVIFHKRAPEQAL
- PROTOCOL SUMMARY: cell-based
- Parameters: species or system HTLA; PRESTO-Tango beta-arrestin2 recruitment, luciferase luminescence, concentration-response
- EXPERIMENTAL SETUP: Assay=Tango; agonist mode
pEC50: −log10 of the molar value.
ATTRIBUTE MEASURED: pEC50

MOLECULE | VAL
CCCCCCOc1nsnc1C1=CCCNC1 [N-desmethylxanomeline] | 6.98

====

- MEASURED TARGET: UniProt P28221
- Sequence (P28221 whole entry): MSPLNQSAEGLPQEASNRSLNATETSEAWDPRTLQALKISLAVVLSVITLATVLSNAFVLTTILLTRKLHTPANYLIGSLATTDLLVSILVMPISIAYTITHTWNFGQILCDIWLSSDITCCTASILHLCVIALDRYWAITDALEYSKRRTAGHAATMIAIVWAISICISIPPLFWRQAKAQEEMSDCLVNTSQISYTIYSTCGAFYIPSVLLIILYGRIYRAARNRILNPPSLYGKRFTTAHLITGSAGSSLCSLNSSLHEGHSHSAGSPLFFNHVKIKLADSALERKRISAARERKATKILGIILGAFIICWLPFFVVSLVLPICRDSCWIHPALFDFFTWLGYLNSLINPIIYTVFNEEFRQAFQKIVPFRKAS
pKi: −log10 of the molar value.
ATTRIBUTE MEASURED: pKi

MOLECULE | MEASURED TARGET | VAL
CCCCCCOc1nsnc1C1=CCCNC1 [N-desmethylxanomeline] | UniProt P28221 | 7.41

====

The following molecules are listed with their measured pEC50 values.
- MEASURED TARGET: CHRM3 (Homo sapiens, UniProt P20309)
- PROTOCOL SUMMARY: cell-based
- Parameters: species or system HEK293; Fluo-4 Direct calcium mobilization on FLIPR-Tetra
- EXPERIMENTAL SETUP: Assay=Calcium; agonist mode
pEC50: −log10 of the molar value.

SMILES | pEC50
CCCCCCOc1nsnc1C1=CCCN(C)C1 | 7.47
CCCCCCOc1nsnc1C1=CCCNC1 | 7.19

Values from paper doi:10.1101/2025.11.20.689572v1
